Data credit: patent US9079913B2

Reported values of pIC50 for individual entries
System: cancer cell lines with wild-type p53 / mutated or deleted p53 (ATCC)
test.summary: Cell growth assay (WST-8), other cancer cell lines
Assay type: cell-based
particulars: Homo sapiens, PC-3, Table 19B; PC3 cells; read-out: Inhibition of cell growth IC50, PC3
pIC50: −log10 of the molar value.
parameter.measured: pIC50

{"compound": "CCCCC(C)(C)C[C@H]1N[C@@H](C(=O)NCC[C@H](O)CO)[C@H](c2cccc(Cl)c2)[C@@]12C(=O)Nc1cc(Cl)c(F)cc12", "target.of.assay": "cancer cell lines with wild-type p53 / mutated or deleted p53 (ATCC)", "op": "=", "recorded.value": 5.41}
{"compound": "CCCC(C)(C)C[C@H]1N[C@@H](C(=O)NCC[C@H](O)CO)[C@H](c2cccc(Cl)c2)[C@@]12C(=O)Nc1cc(Cl)c(F)cc12", "target.of.assay": "cancer cell lines with wild-type p53 / mutated or deleted p53 (ATCC)", "op": "=", "recorded.value": 5.21}
{"compound": "O=C(NCC[C@H](O)CO)[C@@H]1N[C@H](CC2CC2)[C@]2(C(=O)Nc3cc(Cl)c(F)cc32)[C@H]1c1cccc(Cl)c1", "target.of.assay": "cancer cell lines with wild-type p53 / mutated or deleted p53 (ATCC)", "op": "=", "recorded.value": 5.34}
{"compound": "CC(C)(C)C[C@H]1N[C@@H](C(=O)NCCN2CCOCC2)[C@H](c2cccc(Cl)c2F)[C@@]12C(=O)Nc1cc(F)c(F)cc12", "target.of.assay": "cancer cell lines with wild-type p53 / mutated or deleted p53 (ATCC)", "op": "=", "recorded.value": 4.82}
{"compound": "CC(C)(C)C[C@H]1N[C@@H](C(=O)NCC[C@H](O)CO)[C@H](c2cccc(Cl)c2)[C@@]12C(=O)Nc1c(Cl)cccc12", "target.of.assay": "cancer cell lines with wild-type p53 / mutated or deleted p53 (ATCC)", "op": "=", "recorded.value": 4.67}
{"compound": "CC(C)(C)C[C@H]1N[C@@H](C(=O)N2CCN(C(=O)C3CC3)CC2)[C@H](c2cccc(Cl)c2)[C@@]12C(=O)N(C(=O)C1CC1)c1cc(Cl)c(F)cc12 [MI-743B]", "target.of.assay": "cancer cell lines with wild-type p53 / mutated or deleted p53 (ATCC)", "op": "<", "recorded.value": 6.00}
{"compound": "CC(C)CC(C)(C)C[C@H]1N[C@@H](C(=O)NCC[C@H](O)CO)[C@H](c2cccc(Cl)c2F)[C@@]12C(=O)Nc1cc(F)c(F)cc12", "target.of.assay": "cancer cell lines with wild-type p53 / mutated or deleted p53 (ATCC)", "op": "=", "recorded.value": 5.24}
{"compound": "CC(C)CC(C)(C)C[C@H]1N(C)[C@@H](C(=O)NCC[C@H](O)CO)[C@H](c2cccc(Cl)c2)[C@@]12C(=O)Nc1cc(Cl)c(F)cc12", "target.of.assay": "cancer cell lines with wild-type p53 / mutated or deleted p53 (ATCC)", "op": "=", "recorded.value": 5.29}
{"compound": "CCC(C)(C)C[C@H]1N(C)[C@@H](C(=O)NCC[C@H](O)CO)[C@H](c2cccc(Cl)c2F)[C@@]12C(=O)Nc1cc(F)c(F)cc12", "target.of.assay": "cancer cell lines with wild-type p53 / mutated or deleted p53 (ATCC)", "op": "=", "recorded.value": 4.61}
{"compound": "CCC(C)(C)C[C@H]1N[C@@H](C(=O)NCC[C@H](O)CO)[C@H](c2cccc(Cl)c2)[C@@]12C(=O)Nc1cc(Cl)c(F)cc12", "target.of.assay": "cancer cell lines with wild-type p53 / mutated or deleted p53 (ATCC)", "op": "=", "recorded.value": 4.82}
{"compound": "CC(C)(C)C[C@H]1N[C@@H](C(=O)NCCC2CCC(O)C2)[C@H](c2cccc(Cl)c2F)[C@@]12C(=O)Nc1cc(Cl)ccc12 (stereo partly drawn)", "target.of.assay": "cancer cell lines with wild-type p53 / mutated or deleted p53 (ATCC)", "op": "<", "recorded.value": 5.00}
{"compound": "CC(C)(C)C[C@H]1N[C@@H](C(=O)N2CCN(C(=O)C3CC3)CC2)[C@H](c2cccc(Cl)c2)[C@@]12C(=O)Nc1cc(Cl)c(F)cc12", "target.of.assay": "cancer cell lines with wild-type p53 / mutated or deleted p53 (ATCC)", "op": "=", "recorded.value": 5.11}
{"compound": "O=C(NCC[C@H](O)CO)[C@@H]1N[C@H](CCc2ccsc2)[C@]2(C(=O)Nc3cc(Cl)c(F)cc32)[C@H]1c1cccc(Cl)c1", "target.of.assay": "cancer cell lines with wild-type p53 / mutated or deleted p53 (ATCC)", "op": "=", "recorded.value": 5.34}
{"compound": "O=C(NCC[C@H](O)CO)[C@@H]1N[C@H](CCc2cccs2)[C@]2(C(=O)Nc3cc(Cl)c(F)cc32)[C@H]1c1cccc(Cl)c1", "target.of.assay": "cancer cell lines with wild-type p53 / mutated or deleted p53 (ATCC)", "op": "=", "recorded.value": 5.41}
{"compound": "CC(C)CC(C)(C)C[C@H]1N[C@@H](C(=O)NCC[C@H](O)CO)[C@H](c2ccc(F)c(Cl)c2)[C@@]12C(=O)Nc1cc(F)c(F)cc12", "target.of.assay": "cancer cell lines with wild-type p53 / mutated or deleted p53 (ATCC)", "op": "=", "recorded.value": 5.20}
